- Test system: TRPC4 beta (transient receptor potential cation channel C4), mouse
- assay_details: TRPC4 cation channel opening, retest – cell-based, Fluo4 calcium, HEK293 TRPC4beta/mu-opioid, duplicates, 10 µM, confirmation (AID 2426)
- condition_context: Fluo4 calcium fluorescence, at 10 µM
Activity calls are given as the source filed them.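 How the source made its calls: active means fluorescence ratio normalized to control raised more than 50% in primary screen plus both repeat runs; inactive means the rest.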
The reply should be one of these categories: active, inactive

In [3]: df
Out[3]:
                                   compound  qualitative_label
0  O=C(NCc1ccccc1)C1=C[C@@H](C2CCCCC2)C[C@@H](OCc2ccc(CO)cc2)O1             active

Outcome logged for `CCOC(=O)C1(CCCc2ccccc2)CCN(Cc2cnn(C)c2)CC1` in this assay:
active

Outcome logged for `Oc1cccc(C(=S)N2CCN(Cc3ccccc3)CC2)c1` in this assay:
inactive

* * *

- Tested on: TRPC4 beta (transient receptor potential cation channel C4), mouse
- assay_details: potentiation of DAMGO EC20 TRPC4 response – cell-based, Fluo-4, HEK293 TRPC4beta/mu-opioid, confirmation (AID 2555)
- condition_context: DAMGO EC20, Fluo-4 calcium flux, at 10 µM
Activity calls are given as the source filed them.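 How the source made its calls: active means primary screen hit whose calcium fluorescence ratio, in both repeats, exceeds the weak agonist control mean by 3 SD; inactive means the rest.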
The reply should be one of these categories: yes (active), no (inactive)

In [3]: df
Out[3]:
                                   molecule  qualitative_label
0       Cn1nnnc1SCCNCc1ccccc1OCc1ccc(Cl)cc1                 no
1  Cc1ccc(CC(=O)NCC(c2ccco2)N(C)C)cc1C (stereo unspecified)                 no
2  COc1ccc(Cc2noc(CN(C)CC3CCN(Cc4ccccc4)CC3)n2)cc1OC                 no
3  CC1CCCCC1NS(=O)(=O)c1ccc(S(=O)(=O)N2CCCC2)cc1 (stereo unspecified)                yes
4  Cc1ccc(C)n1-c1nnc(N2CCC(C(=O)NCCCN3CC(C)CC(C)C3)CC2)s1 (stereo unspecified)                 no

Outcome logged for `CC1CCN(CCCOc2ccc(OCc3ccccc3)cc2)CC1` in this assay:
no

* * *

- Test system: TRPC4 (transient receptor potential cation channel C4 beta), mouse
- assay_details: potentiation of DAMGO EC20 TRPC4 response – cell-based, second round, Fluo-4, HEK293 TRPC4beta/mu-opioid, 1 µM, confirmation (AID 2554)
- condition_context: DAMGO EC20, Fluo-4 calcium flux, at 1 µM
Active and inactive are the calls of the source.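 How the source made its calls: active means primary screen hit whose fluorescence ratio, in both repeats, exceeds the weak agonist control mean by 3 SD; inactive means the rest.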
The reply should be one of these categories: YES for active, NO for inactive

Solved cases (10 shown):
>>> df
                                   compound  qualitative_label
0     Cc1[nH]n2c(=O)c3c(nc2c1-c1ccccc1)CCC3                 NO
1                    NCCc1nnc(SCc2ccccc2)o1                 NO
2  O=C(NC1CCN(Cc2ccccc2)CC1)c1cccc(S(=O)(=O)Nc2cc(C(F)(F)F)ccc2Cl)c1                YES
3  O=C(NCCCN1CCCC1=O)c1ccc(CNS(=O)(=O)c2ccc(F)cc2)cc1                 NO
4  Cc1ccc(/C=N/NC(=O)C2COc3ccccc3O2)s1 (stereo unspecified)                 NO
5     Clc1ccc2nc(N3CCNCC3)nc(-c3ccccc3)c2c1                 NO
6        COC(=O)c1cc(N2CCN(C)CC2)nc2ccccc12                 NO
7               Cc1cc(Cl)cc(Cl)c1OCCCCN(C)C                YES
8  CN(CCc1ccccn1)C(=O)CC1C(=O)NCCN1Cc1cccc(F)c1 (stereo unspecified)                 NO
9  CCn1c(/C=C/Nc2ccccc2)[n+](CC)c2ccc(Cl)cc21                 NO

Outcome logged for `COc1ccc(/C=N/Nc2nc3ccccc3s2)cc1O` in this assay:
NO

Reference for the values: PubChem BioAssay
